Attribution: the nanobody polyreactivity screen of Harvey et al. (2022)

test: yeast display, Sf9 membrane polyspecificity reagent, FACS + sequencing; frameworks hold sequencing errors
measured.attribute: polyreactivity (PSR sort gate)

Take a look at these entries with their results.
biopolymer_sequence=QVQLVESRGGLVQAGGSLRLSCAASGRIFSIYAMGWYRQAPGKERELVAAITNGGGSTYYADSVKGRFTISRDNAKNTVYLPMISLKPEDTAVYYCAARSPGGKNTKYYWGQGTQVTVSS measured_attribute="polyreactivity (PSR sort gate)" result="high polyreactivity"
biopolymer_sequence=QVQLVESGGGLVQAGGSLRLSCAASGSIFRPYAMGWYRQAPGKEREFVAAITYGGGNTYYADSVKGRFTISRDNAKNTFYLQMNILKPEDTAVYYCNKLSRGFSPKYDYWGQGTQVTVSS measured_attribute="polyreactivity (PSR sort gate)" result="high polyreactivity"
biopolymer_sequence=QVQLVESGGGLVQAGGSLRLSCAASGFTFYYYAMGWYRQAPGKERELVAGINSDGNTYYADSVKGRFTISRDNAKNNVYLQMNSLKPEDTAVYYCAASKLWPKNFVRHDYWGQGTQVTVSS measured_attribute="polyreactivity (PSR sort gate)" result="low polyreactivity"
biopolymer_sequence=QVQLVESGGGLVQAGGSLRLSCAACGSTFPYNAMGWYRQAPGKERELVAAISGNGDSTFYADSVKGRFTISRDNAKNTVYLQMNSLKPEDTAVYYCAAEQYYGYYFYGYWGQGTQVTVSS measured_attribute="polyreactivity (PSR sort gate)" result="high polyreactivity"

Now take the following sequence into account.
[in] Item QVHLVESGGGLVQAGGSLRLSCAASGLTFLYNTMGWYRQAPGKEREFVAAITISGGTTYYADSVKGRFTISRDNAKNTVYLQMNSLKREDTAVYYCAADYNSTERGTNMDYWGQGTQVTVSS has what recorded polyreactivity (PSR sort gate)?
[out] low polyreactivity

* * *

assay: yeast display, Sf9 membrane polyspecificity reagent, FACS + sequencing; frameworks hold sequencing errors
measured.attribute: polyreactivity (PSR sort gate)

biopolymer_sequence=QVQLVESGGGLVQAGGSLRLSCDASGSTRIYAMGWYTQAPGKERELVAAISWTGGRTYYADSVKGRFTISRDNAKYTVYLQMNSLKPEDTAVYYCAAKGSGRDYWGQGTLVTVSS measured_attribute="polyreactivity (PSR sort gate)" result="high polyreactivity"
biopolymer_sequence=QVQLVESGGGLVQAGGSLRLSCAASGLTFTRYTMGWYRQAPGKERELVAAITSSGGSTYYADSVKGRFTISRDNAKNTVYLQMNSLKPEDTAVYYCAARYPGTRGDGYWGQGTQVTVSS measured_attribute="polyreactivity (PSR sort gate)" result="high polyreactivity"
biopolymer_sequence=QVQLVESGGGLVQAGGSLRLSCAASGRIFGINALGWYRQAPGKERELVAAISSADSTYADSVKGRFTISRDNAKNTVFLQMYSLNPEDTAVYNCRNDYWGQGTQVTVSS measured_attribute="polyreactivity (PSR sort gate)" result="low polyreactivity"
biopolymer_sequence=QVQLVESGAGLVHAGGSLRLSCASSGSIFNVYAMGWYRQAPGKERELVAAIRSSGGSTYYADSVKGRFTISRDKAKNTVNLQMNSLKPEDTAVYYCAAVTRAIRTWRMYYWGQGTQVTVSS measured_attribute="polyreactivity (PSR sort gate)" result="high polyreactivity"

// moving on: another record for polyreactivity (PSR sort gate)
[in] polyreactivity (PSR sort gate) lookup needed for QVQLVESGGGLVQAGGSLRLSCAASGFTFGHYAMGWYRQAPGKERELVAAISRSGGTTSYADSVKGRFTISRDNAKNTVYLQMNSLKPEDTAVYYCNKDYIWARYGGGRDYWGQGTQVTVSS , thanks.
[out] low polyreactivity
